- ASSAYED_SYSTEM: Purified GPIIbIIIa (Homo sapiens, UniProt P05106+P08514)
- Construct: GPIIbIIIa was purified from human platelets
- Sequence (P08514 32-887 limits assumed): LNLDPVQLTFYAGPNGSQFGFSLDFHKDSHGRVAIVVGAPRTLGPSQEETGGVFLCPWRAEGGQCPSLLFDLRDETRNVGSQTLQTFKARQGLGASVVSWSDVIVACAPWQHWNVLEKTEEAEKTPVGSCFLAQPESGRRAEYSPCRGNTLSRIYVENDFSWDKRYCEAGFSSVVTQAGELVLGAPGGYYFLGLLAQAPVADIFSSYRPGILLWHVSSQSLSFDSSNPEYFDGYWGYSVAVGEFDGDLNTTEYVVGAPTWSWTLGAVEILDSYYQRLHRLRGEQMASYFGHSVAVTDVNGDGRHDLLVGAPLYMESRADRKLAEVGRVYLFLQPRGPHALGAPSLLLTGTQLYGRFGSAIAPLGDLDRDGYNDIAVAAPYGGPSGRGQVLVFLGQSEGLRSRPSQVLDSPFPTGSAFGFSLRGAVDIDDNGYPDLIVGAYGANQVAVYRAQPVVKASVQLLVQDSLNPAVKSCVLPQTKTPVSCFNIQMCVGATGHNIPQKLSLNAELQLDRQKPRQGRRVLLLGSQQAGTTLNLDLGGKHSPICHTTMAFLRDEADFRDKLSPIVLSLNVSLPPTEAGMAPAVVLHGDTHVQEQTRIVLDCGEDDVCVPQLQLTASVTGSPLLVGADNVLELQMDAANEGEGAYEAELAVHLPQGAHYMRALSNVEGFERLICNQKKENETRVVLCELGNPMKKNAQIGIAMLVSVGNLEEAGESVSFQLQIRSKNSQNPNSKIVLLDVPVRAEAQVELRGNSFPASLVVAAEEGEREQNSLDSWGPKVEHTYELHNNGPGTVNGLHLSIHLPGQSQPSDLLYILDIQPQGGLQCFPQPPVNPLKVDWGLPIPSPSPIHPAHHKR
- Sequence (P08514 891-1039 partner limits assumed): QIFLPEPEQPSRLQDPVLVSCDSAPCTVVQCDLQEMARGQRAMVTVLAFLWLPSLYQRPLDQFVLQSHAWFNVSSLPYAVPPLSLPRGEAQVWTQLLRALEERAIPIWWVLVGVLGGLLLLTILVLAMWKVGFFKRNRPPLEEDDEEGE
- Sequence (P05106 27-788): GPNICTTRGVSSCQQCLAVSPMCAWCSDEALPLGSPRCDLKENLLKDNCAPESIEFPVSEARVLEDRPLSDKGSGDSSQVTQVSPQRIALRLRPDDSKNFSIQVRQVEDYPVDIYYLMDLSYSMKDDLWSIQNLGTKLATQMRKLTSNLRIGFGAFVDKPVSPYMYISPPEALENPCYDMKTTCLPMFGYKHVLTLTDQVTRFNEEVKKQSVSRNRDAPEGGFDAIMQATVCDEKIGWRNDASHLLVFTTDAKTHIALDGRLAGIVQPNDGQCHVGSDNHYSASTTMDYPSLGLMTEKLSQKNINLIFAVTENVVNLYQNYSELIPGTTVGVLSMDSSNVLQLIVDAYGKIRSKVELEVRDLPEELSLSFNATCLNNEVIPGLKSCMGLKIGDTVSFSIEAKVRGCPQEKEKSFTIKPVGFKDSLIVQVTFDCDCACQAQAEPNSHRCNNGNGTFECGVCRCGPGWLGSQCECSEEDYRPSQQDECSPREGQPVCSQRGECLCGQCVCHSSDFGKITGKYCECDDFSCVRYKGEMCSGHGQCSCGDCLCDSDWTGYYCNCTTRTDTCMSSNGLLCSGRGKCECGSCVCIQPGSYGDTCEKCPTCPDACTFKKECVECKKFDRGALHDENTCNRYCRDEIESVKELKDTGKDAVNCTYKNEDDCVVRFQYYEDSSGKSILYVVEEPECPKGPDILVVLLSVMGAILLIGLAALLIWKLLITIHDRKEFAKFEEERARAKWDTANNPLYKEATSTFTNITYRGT
- EXPERIMENTAL_PROTOCOL: GPIIbIIIa (fibrinogen) enzyme-linked immunoassay (ELISA)
- CONDITIONS_USED: purified human platelet GPIIbIIIa binding to immobilized fibrinogen; read-out: GPIIbIIIa (Fibrogen ELISA IC50)
Listing: IC50 of selected molecules
Response body: numeric value in nM, unit text excluded.

>  <STRUCTURE_SMILES_STRING>
C[C@H]1CN[C@@H](CCCNC(=N)N)C(=O)NCC(=O)N[C@@H](CC(=O)O)C(=O)N[C@H](C(=O)NCc2ccccc2)CCC(=O)N1

>  <QUANTITY_MEASURED>
IC50

>  <MEAS_VALUE>
200

$$$$

Input: Identify IC50 associated with the molecule "C[C@H]1CN(CCCC(=O)O)[C@@H](CCCNC(=N)N)C(=O)NCC(=O)N[C@@H](CC(=O)O)C(=O)N[C@H](C(=O)NCc2ccccc2)CCC(=O)N1"
Output: 540

Input: Identify IC50 associated with the molecule "C[C@H]1CN(CCCc2ccccc2)[C@@H](CCCNC(=N)N)C(=O)NCC(=O)N[C@@H](CC(=O)O)C(=O)N[C@H](C(=O)NCc2ccccc2)CCC(=O)N1"
Output: 300

Input: Identify IC50 associated with the molecule "C[C@H]1CN(C(=O)CCN)[C@@H](CCCNC(=N)N)C(=O)NCC(=O)N[C@@H](CC(=O)O)C(=O)N[C@H](C(=O)NCc2ccccc2)CCC(=O)N1"
Output: 3000

The origin of these recorded values is patent US6107275A.
